Data credit: patent US20240026009A1

Could you please report measured OD450 for the items listed next?
molecular target: T1, mouse Gal-3 (mouse, UniProt P16110 2-264, limits assumed); experiment: ELISA on mouse Gal-3 (moGal3), one OD450 value per clone
T1 construct: also called mouse Galectin-3; Lgal3
T1 sequence (P16110 2-264 limits assumed): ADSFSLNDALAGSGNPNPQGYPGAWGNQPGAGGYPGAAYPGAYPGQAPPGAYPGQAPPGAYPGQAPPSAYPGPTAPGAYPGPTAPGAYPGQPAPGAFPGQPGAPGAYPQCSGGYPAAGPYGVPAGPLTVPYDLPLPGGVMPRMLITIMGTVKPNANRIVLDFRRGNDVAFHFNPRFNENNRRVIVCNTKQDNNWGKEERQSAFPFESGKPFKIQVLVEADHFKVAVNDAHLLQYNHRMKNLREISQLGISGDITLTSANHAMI
// no unit, no text: just the number

Looking up mAb 39F02 (antibody, V domains shown, Hybridoma antibody from AlivaMab Mouse; Human HC (chimeric IgH with mouse CH2 and CH3) and murine LC; also called clone 39F02) VH: EVQLLESGGGLVQPGGSLRLSCAASGFTLSNYAMSWVRQAPGKGLEWVSAISGSGGGTYNADSVKGRFTISRDNSKNTLYLQMNSLRAEDTAVYYCAKEAWISYFDYWGQGTLVTVSS VL: DIVMSQSPSSLAVSVGEKVTLSCKSSQSLLYGDDQKNYLAWYQQKPGQSPKLLLYWASTWESGVPDRFTGSGSGTDFTLTISSVKAADLAVYYCQQYYSYPWTFGGGTKLEIK , I see its OD450 listed as 0.726

Looking up mAb 12H07 (antibody, V domains shown, Hybridoma antibody from AlivaMab Mouse; Human HC (chimeric IgH with mouse CH2 and CH3) and murine LC; also called 12H7; clone 12H07) VH: EVQLVESGGGLVKPGGSLRLSCAASGFIFSNYNINWVRQAPGKGLEWVSCVSRSNYTYYTDSVKGRFTISRDNAKKSLYLQMNSLRAEDTAVYYCARDCGTYGVFDYWGQGTLVTVSS VL: ETTVTQSPASLSMAIGEKVTIRCITSTDIDDDMNWYQQKPGEPPKLLISEGNILRPGVPSRFSSSGYGTDFVFAIENMLSEDVADYYCLQSDNLPYTFGGGTKLELK , I see its OD450 listed as 0.049

Looking up mAb 38E05 (antibody, V domains shown, Hybridoma antibody from AlivaMab Mouse; Human HC (chimeric IgH with mouse CH2 and CH3) and murine LC; also called clone 38E05) VH: EVQLLESGGGLVQPGGSLRLSCAASGFTLSNYAMSWVRQAPGKGLEWVSAISGSGGGTYNADSVKGRFTISRDNSKNTLYLQMNSLRAEDTAVYYCAKEAWISYFDYWGQGTLVTVSS VL: DIVMSQSPSSLAVSVGEKVTLSCKSSQSLLYGDDQKNYLAWYQQKPGQSPKLLLYWASTWESGVPDRFTGSGSGTDFTLTISSVKAADLAVYYCQQYYSYPWTFGGGTKLEIK , I see its OD450 listed as 1.12

Looking up mAb 20F08 (antibody, V domains shown, Hybridoma antibody from AlivaMab Mouse; Human HC (chimeric IgH with mouse CH2 and CH3) and murine LC; also called clone 20F08) VH: EVQLVESGGGLVKPGGSLRLSCAASGFIFSNYNINWVRQAPGKGLEWVSCVSRSNYTYYTDSVKGRFTISRDNAKKSLYLQMNSLRAEDTAVYYCARDCGTYGVFDYWGQGTLVTVSS VL: ETTVTQSPASLSMAIGEKVTIRCITSTDIDDDMNWYQQKPGEPPKLLISEGNILRPGVPSRFSSSGYGTDFVFAIENMLSEDVADYYCLQSDNLPYTFGGGTKLELK , I see its OD450 listed as 0.047
